Taken from ChEMBL document CHEMBL4257573.

# Tested on: HEK293
# test_description: Cytotoxicity against HEK293 cells assessed as reduction in cell viability after 72 hrs by MTT assay
# Format: cell-based
# condition_notes: Homo sapiens, HEK293, 72 h
endpoint_name: pIC50
Answers are plain numbers, as −log10 of the molar value.

Dear colleague, could you send me pIC50 for each of the items below? Thanks.
1. C=C(C=O)[C@@H]1CC[C@]2(C(=O)OC)CC[C@]3(C)[C@H](CC[C@@H]4[C@@](C)(CC#N)[C@H](C(C)(C)C(=O)COC(=O)/C=C/c5ccccc5)CC[C@]43C)[C@@H]12
2. CC[C@@]1(O)C(=O)OCc2c1cc1n(c2=O)Cc2cc3ccccc3nc2-1 [CAMPTOTHECIN]

**A:**
1. 3.74
2. 5.79

Dear colleague, could you send me pIC50 for each of the items below? Thanks.
1. C=C(C=O)[C@@H]1CC[C@]2(C(=O)OC)CC[C@]3(C)[C@H](CC[C@@H]4[C@@](C)(CC#N)[C@H](C(C)(C)C(=O)COC(C)=O)CC[C@]43C)[C@@H]12
2. C=C(C=O)[C@@H]1CC[C@]2(C(=O)OC)CC[C@]3(C)[C@H](CC[C@@H]4[C@@](C)(CC#N)[C@H](C(C)(C)C(=O)COC(=O)c5ccccc5OC(C)=O)CC[C@]43C)[C@@H]12
3. C=C(C=O)[C@@H]1CC[C@]2(C(=O)OC)CC[C@]3(C)[C@H](CC[C@@H]4[C@@](C)(CC#N)[C@H](C(C)(C)C(=O)COC(=O)c5cccnc5)CC[C@]43C)[C@@H]12
4. C=C(C=O)[C@@H]1CC[C@]2(C(=O)OC)CC[C@]3(C)[C@H](CC[C@@H]4[C@]5(C)[C@@H](CC[C@]43C)C(C)(C)[C@@](O)(CO)[C@H]5C#N)[C@@H]12
5. COc1cccc2c1C(=O)c1c(O)c3c(c(O)c1C2=O)C[C@@](O)(C(=O)CO)C[C@@H]3O[C@H]1C[C@H](N)[C@H](O)[C@H](C)O1 [DOXORUBICIN]

**A:**
1. 4.53
2. 3.97
3. 4.23
4. 3.93
5. 7.70

---

# test_description: Selectivity index, ratio of IC50 for HEK293 cells to IC50 for human Hep2 cells
# Format: toxicity
# condition_notes: HEK293 cells versus Hep2 cells, read-out: Ratio IC50
endpoint_name: selectivity ratio

Before answering, review these 5 worked examples.
{"compound_smiles": "CC[C@@]1(O)C(=O)OCc2c1cc1n(c2=O)Cc2cc3ccccc3nc2-1", "endpoint_name": "selectivity ratio", "observed": "0.53 to 40.2"}
{"compound_smiles": "C=C(C=O)[C@@H]1CC[C@]2(C(=O)OC)CC[C@]3(C)[C@H](CC[C@@H]4[C@]5(C)[C@@H](CC[C@]43C)C(C)(C)[C@@](O)(CO)[C@H]5C#N)[C@@H]12", "endpoint_name": "selectivity ratio", "observed": "4.08 to 20.2"}
{"compound_smiles": "C=C(C=O)[C@@H]1CC[C@]2(C(=O)OC)CC[C@]3(C)[C@H](CC[C@@H]4[C@@](C)(CC#N)[C@H](C(C)(C)C(=O)COC(C)=O)CC[C@]43C)[C@@H]12", "endpoint_name": "selectivity ratio", "observed": "2.42 to 9.61"}
{"compound_smiles": "C=C(C=O)[C@@H]1CC[C@]2(C(=O)OC)CC[C@]3(C)[C@H](CC[C@@H]4[C@@](C)(CC#N)[C@H](C(C)(C)C(=O)COC(=O)c5ccccc5OC(C)=O)CC[C@]43C)[C@@H]12", "endpoint_name": "selectivity ratio", "observed": "1.08 to 22.5"}
{"compound_smiles": "C=C(C=O)[C@@H]1CC[C@]2(C(=O)OC)CC[C@]3(C)[C@H](CC[C@@H]4[C@@](C)(CC#N)[C@H](C(C)(C)C(=O)COC(=O)/C=C/c5ccccc5)CC[C@]43C)[C@@H]12", "endpoint_name": "selectivity ratio", "observed": "1.84 to 50.3"}

Next molecule, please.
**Q:** I have this molecule here, C=C(C=O)[C@@H]1CC[C@]2(C(=O)OC)CC[C@]3(C)[C@H](CC[C@@H]4[C@@](C)(CC#N)[C@H](C(C)(C)C(=O)COC(=O)c5cccnc5)CC[C@]43C)[C@@H]12 , and I need its recorded selectivity ratio.
**A:** 1.47 to 8.45

---

# Tested on: RD
# test_description: Cytotoxicity against human RD cells assessed as reduction in cell viability after 72 hrs by MTT assay
# Format: functional, cell-based
endpoint_name: IC50

Dear colleague, could you send me IC50 for each of the items below? Thanks.
1. CC1(C)CC[C@]23CC[C@]4(C)[C@H](CC[C@@H]5[C@@](C)(CC#N)[C@H](C(C)(C)C(=O)COC(=O)CCC(=O)O)CC[C@]54C)[C@H]2[C@H]1OC3
2. CC1(C)CC[C@]23CC[C@]4(C)[C@H](CC[C@@H]5[C@]6(C)[C@@H](CC[C@]54C)C(C)(C)[C@@](O)(CO)[C@H]6C#N)[C@H]2[C@H]1OC3
3. CC1(C)CC[C@]23CC[C@]4(C)[C@H](CC[C@@H]5[C@@](C)(CC#N)[C@H](C(C)(C)C(=O)CO)CC[C@]54C)[C@H]2[C@H]1OC3

**A:**
["> 100 µM", "> 100 µM", "> 100 µM"]
